Assay: pKa
Assay type: physicochemical
Conditions: read-out: pKa
Structures can show the parent of a compound that is named as a salt.
Readout Kind: pKa

Exam item: Form field: reported pKa of CN(C(=O)C(c1ccccc1)c1ccccc1)[C@H](CN1CC[C@H](O)C1)c1ccccc1 [Comparison Example, hydrochloride]
Marked response: 7.4

----------
Below, each entry is listed alongside its reported solubility.
Experiment: Solubility in water
Assay type: physicochemical
Settings: at 20° C.
Structures can show the parent of a compound that is named as a salt.
# number then unit; no other words

- Compound: "CN(C(=O)C(c1ccccc1)c1ccccc1)[C@H](CN1CC[C@H](O)C1)c1ccccc1.Cl"
  Assay Value: "7600 µg/mL"

# evaluate next
Exam item: # query: solubility of entry CN(C(=O)C(c1ccccc1)c1ccccc1)[C@H](CN1CC[C@H](O)C1)c1ccccc1 [Comparison Example, hydrochloride]
Marked response: 11600 µg/mL
